- System: PKCa + GSK3b
- PROTOCOL DESCRIPTION: In vitro phosphorylation of nucleocapsid peptides, ADP-Glo, PKCa + GSK3b combined
- Assay type: biochemical, human
- RUN CONDITIONS: Mean ± S.Dev. (n = 3); no kinase control = 100
Exercise: for every item that follows, state its recorded Relative Phosphorylation to No Kinase Control, PKCa + GSK3b.

Example entries begin here.
[
  {
    "SEQUENCE RECORD": "SSRSRNSSRNSTPG [SCV2-N [187-200], synthetic peptide modeled after SARS-CoV-2 nucleocapsid protein phosphorylation sites]",
    "TARGET DESC": "PKCa + GSK3b",
    "RESULT": "3692 ± 61"
  },
  {
    "SEQUENCE RECORD": "RNSTPGSSRGTSPAR [SCV2-N [195-209], synthetic peptide modeled after SARS-CoV-2 nucleocapsid protein phosphorylation sites]",
    "TARGET DESC": "PKCa + GSK3b",
    "RESULT": "4262 ± 27"
  }
]

Below are 2 sequences. Give each one its Relative Phosphorylation to No Kinase Control, PKCa + GSK3b.
1. SQASSRSSSRSRNS [SCV2-N [180-193], synthetic peptide modeled after SARS-CoV-2 nucleocapsid protein phosphorylation sites]
2. RGGSQASSRSSSRS [SCV2-N [177-190], synthetic peptide modeled after SARS-CoV-2 nucleocapsid protein phosphorylation sites]

1. 3836 ± 41
2. 3572 ± 22

* * *

Would you mind telling me the reported inhibition at 10 µM of each entry?
- Test system: SARS-CoV-2
- PROTOCOL DESCRIPTION: High-content screen of GSK3β-focused library in SARS-CoV-2 infected Huh-7.5.1 cells (dsRNA or nucleocapsid)
- Type: cell-based
- RUN CONDITIONS: Severe acute respiratory syndrome coronavirus 2; single dose of 10 μM, Huh-7.5.1 cells, screen 1, Z′ 0.7; read-out: SARS-CoV-2 inhibition (% Nucleocapsid) 1
Numbers only, in %.

[
  {
    "COMPOUND": "COc1ccc(-n2cnc3ccc(-c4nnc(SCc5cccc(C#N)c5)o4)cc32)cc1 [Compound P-0780332]",
    "TARGET DESC": "SARS-CoV-2",
    "inhibition at 10 µM / %": 0
  },
  {
    "COMPOUND": "Cc1nnc(-c2ccc3occ(-c4ccc([S+](C)[O-])c(OC(F)(F)F)c4)c3c2)o1 (stereo not shown) [Compound P-5782442]",
    "TARGET DESC": "SARS-CoV-2",
    "inhibition at 10 µM / %": 93.3
  },
  {
    "COMPOUND": "O=C(NCc1ccccn1)Nc1cc(N2CC(CCc3ccccc3)CC2=O)ccn1 (stereo not shown) [Compound P-4423632]",
    "TARGET DESC": "SARS-CoV-2",
    "inhibition at 10 µM / %": 98
  },
  {
    "COMPOUND": "CSc1ccc(-n2cnc3ccc(-c4nnc(CCc5cccc(C#N)c5)o4)cc32)cc1 [Compound P-0717632]",
    "TARGET DESC": "SARS-CoV-2",
    "inhibition at 10 µM / %": 75.2
  },
  {
    "COMPOUND": "CSc1ccc(-c2coc3ccc(-c4nnc(N)o4)cc23)cc1Cl [Compound P-9071942]",
    "TARGET DESC": "SARS-CoV-2",
    "inhibition at 10 µM / %": 100
  },
  {
    "COMPOUND": "C[S+]([O-])c1ccc(-c2coc3ccc(-c4nnc(SCc5cccc(F)c5)o4)cc23)cc1 (stereo not shown) [Compound P-7657632]",
    "TARGET DESC": "SARS-CoV-2",
    "inhibition at 10 µM / %": 100
  }
]

Query: inhibition at 10 µM; subject: CSc1ccc(-n2cnc3ccc(-c4nnc(CCc5cccc(C(F)(F)F)c5)o4)cc32)cc1 [Compound P-3817632] 70.8
